Test system: platelet surface activated integrin αIIbβ3
Assay: cells
Format: cell-based, human
Procedure: FIGS. 2A-2D depict a comparison of MC and FFC platforms for measurement of agonist-stimulated integrin αIIbβ3 activation (PAC1) and P-selectin expression (CD62P) on platelets. […] Samples were fixed in 1% formaldehyde and analyzed by MC or FFC. Data were analyzed using a non-linear fit of log agonist vs. response; variable slope in GraphPad Prism 5. […] Data were analyzed using GraphPad version 5.0 software (GraphPad Software, La Jolla, Calif.) and are presented as mean±standard error of the mean. […]

TEST_SMILES	SYSTEM_NAME	EC50 [µM]
CC(C)C[C@H](NC(=O)[C@H](CC(C)C)NC(=O)[C@H](Cc1ccccc1)NC(=O)[C@@H](N)CO)C(=O)N[C@@H](CCCNC(=N)N)C(=O)N[C@@H](CC(N)=O)C(N)=O	platelet surface activated integrin αIIbβ3	3.7
